Tested on: NCI-H460
assay.summary: Antiproliferative activity against human NCI-H460 cells assessed as inhibition of cell proliferation measured after 72 hrs by MTT assay
Type: functional, cell-based
measurement.conditions: NCI-H460, 72 h
Give IC50 for every item shown.
Provide only the numeric value, understood in nM.

Req: Any idea what IC50 was measured for N[C@@H]1CCN(C(=O)c2csc3c(O)c4c(c(O)c23)C(=O)c2ccccc2C4=O)C1 ?
Resp: 800

Req: Any idea what IC50 was measured for N[C@H]1CCN(C(=O)c2coc3c(O)c4c(c(O)c23)C(=O)c2ccccc2C4=O)C1 ?
Resp: 400

Req: Any idea what IC50 was measured for Cc1[nH]c2c(O)c3c(c(O)c2c1C(=O)N1CCC(N)CC1)C(=O)c1ccccc1C3=O ?
Resp: 2900

Req: Any idea what IC50 was measured for Cc1[nH]c2c(O)c3c(c(O)c2c1C(=O)N1CC[C@@H](N)C1)C(=O)c1ccccc1C3=O ?
Resp: 500

Req: Any idea what IC50 was measured for Cc1c(C(=O)N2CC[C@H](N)C2)c2c(O)c3c(c(O)c2n1C)C(=O)c1ccccc1C3=O ?
Resp: 16300

Req: Any idea what IC50 was measured for O=C1c2ccccc2C(=O)c2c1c(O)c1scc(C(=O)N[C@@H]3CCNC3)c1c2O ?
Resp: 2000

Req: Any idea what IC50 was measured for Cc1[nH]c2c(O)c3c(c(O)c2c1C(=O)N1CCCC(N)C1)C(=O)c1ccccc1C3=O (centres undefined) ?
Resp: 2600

Req: Any idea what IC50 was measured for CCCn1c(C)c(C(=O)N2CC[C@H](N)C2)c2c(O)c3c(c(O)c21)C(=O)c1ccccc1C3=O ?
Resp: 14300

Req: Any idea what IC50 was measured for Cc1c(C(=O)N2CC[C@H](N)C2)c2c(O)c3c(c(O)c2n1Cc1ccccc1)C(=O)c1ccccc1C3=O ?
Resp: 5400
